Biological target: T1, huMICB*005 alpha 3-his (human)
T1 construct: whole construct entry: GS, alpha 3 domain, GNS, His8; also called MICB005.His; MICB*005 alpha3 construct
T1 chain: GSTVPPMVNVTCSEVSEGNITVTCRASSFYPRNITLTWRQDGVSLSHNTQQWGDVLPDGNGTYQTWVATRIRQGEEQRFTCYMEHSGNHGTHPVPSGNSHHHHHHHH
Experiment: SPR, Biacore 8K, antibody on Protein A chip
Metric name: pKd
Would you please state pKd, meaning minus log10 of the concentration in mol/L, as a bare number?

See these solved cases before continuing.
Binder: 1D5v27 (antibody, IgG1, V domains shown, humanized variant of 1D5) VH: EIQLVQSGAEVKKPGASVKVSCKASGYAFTSQNIYWVRQAPGQGLEWIGYIEPYNVVPAYNPKFKGRATLTVDKSTSTAYLELSSLRSEDTAVYYCARSGSSNFDYWGQGTLVTVSS VL: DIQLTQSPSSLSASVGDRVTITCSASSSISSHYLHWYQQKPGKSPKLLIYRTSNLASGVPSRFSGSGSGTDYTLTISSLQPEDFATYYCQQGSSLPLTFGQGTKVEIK
pKd: 8.48
//
Binder: 1D5v12 (antibody, IgG1, V domains shown, humanized variant of 1D5) VH: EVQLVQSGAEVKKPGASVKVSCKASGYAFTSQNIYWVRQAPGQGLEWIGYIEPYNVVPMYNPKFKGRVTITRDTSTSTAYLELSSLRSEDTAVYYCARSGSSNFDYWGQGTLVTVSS VL: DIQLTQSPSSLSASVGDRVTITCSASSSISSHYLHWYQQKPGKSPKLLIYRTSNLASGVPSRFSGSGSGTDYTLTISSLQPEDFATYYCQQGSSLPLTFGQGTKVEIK
pKd: 8.04

Continue with the next binder.
Lookup result for 15F11v1 (antibody, IgG1, V domains shown, humanized variant of 15F11) VH: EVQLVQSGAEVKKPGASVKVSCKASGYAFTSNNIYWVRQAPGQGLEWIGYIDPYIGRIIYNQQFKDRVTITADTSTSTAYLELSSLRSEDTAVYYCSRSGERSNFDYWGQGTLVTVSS VL: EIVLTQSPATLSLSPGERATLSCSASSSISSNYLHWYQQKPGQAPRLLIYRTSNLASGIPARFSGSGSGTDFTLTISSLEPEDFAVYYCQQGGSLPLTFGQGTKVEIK ; measured pKd: 7.79
